Biological target: Tubulin (Homo sapiens) (UniProt P68371+Q9H4B7+P0DPH7+P68366+Q13509+Q71U36+P04350+Q3ZCM7+P07437+P68363+Q9BQE3+Q6PEY2+Q13885+Q9BVA1+Q9BUF5)
Assay: Stabilization of microtubules in human QBI293 cells assessed as fold change in acetylated tubulin levels at 10 uM after 4 hrs by ELISA relative to DMSO
Assay type: cell-based
In this section we review reported fold change (FC) values for a set of compounds.
Enter the number alone.

Answered examples (4):
C[C@H](Nc1c(-c2c(F)cc([S@@+]([O-])CCCN(C)C)cc2F)c(Cl)nc2ncnn12)C(F)(F)F ... 1.39
Fc1cc(F)c(-c2c(Cl)nc3ncnn3c2NC2CC2)c(F)c1 ... 1.27
C[C@H](Nc1c(-c2c(F)cc(S(C)(=O)=O)cc2F)c(Cl)nc2ncnn12)C(F)(F)F ... 1.23
N#Cc1cc(F)c(-c2c(Cl)nc3ncnn3c2N2CCCCCCC2)c(F)c1 ... 4.4

Req: Entry under review: CSc1cc(F)c(-c2c(Cl)nc3ncnn3c2N[C@@H](C)C(F)(F)F)c(F)c1 . Reported fold change (FC)?
Resp: 2.23

Req: Entry under review: C[C@H](Nc1c(-c2c(F)cc(O)cc2F)c(Cl)nc2ncnn12)C(F)(F)F . Reported fold change (FC)?
Resp: 4.11

Req: Entry under review: Fc1cc(F)c(-c2c(Cl)nc3ncnn3c2N2CCCC2)c(F)c1 . Reported fold change (FC)?
Resp: 2.74

Req: Entry under review: Oc1c(-c2c(F)cc(F)cc2F)c(Cl)nc2ncnn12 . Reported fold change (FC)?
Resp: 1.03

Req: Entry under review: C[C@H](Nc1c(-c2cc(F)cc(F)c2)c(Cl)nc2ncnn12)C(F)(F)F . Reported fold change (FC)?
Resp: 3.97

Req: Entry under review: Fc1cc(F)c(-c2c(Cl)nc3ncnn3c2Nc2ccccc2)c(F)c1 . Reported fold change (FC)?
Resp: 1.05
